System: MCC-26
protocolDescription: qHTS assay to identify novel small-molecules to repurpose for Merkel cell carcinoma treatment (AID 1296009); further: nearly all actives have a fitted effect of over 60% in size
testSettings: MCC and control cell lines, CellTiter-Glo viability, 72 h; series mostly up to 46 µM
Results filed as inconclusive are left out. Active and inactive are the calls of the source. The call rests on the fitted dose curve; in most records, active means well fitted inhibition curve with a large enough effect; inconclusive means small, poorly fitted or top-dose-only effect; inactive means flat fitted curve, though single readings scatter.
Outcome codes: YES (active), NO (inactive)

molecule	groupLabel
C[C@]12CC[C@@H]3c4ccc(O)cc4C[C@@H](CCCCCCCCCS(=O)CCCC(F)(F)C(F)(F)F)[C@H]3[C@H]1CC[C@H]2O (stereo not given in full)	NO
O=C(Nc1ccccc1-c1cn2c(CN3CCNCC3)csc2n1)c1cnc2ccccc2n1	YES
O=C(Nc1ccccc1Br)N[C@@H]1CCN(c2ccc(C(F)(F)F)cn2)C1	NO
COc1ncc(-c2ccc3nccc(-c4ccnnc4)c3c2)cc1NS(=O)(=O)c1ccc(F)cc1F	YES
O=C(NOCC(O)CO)c1cc(Br)c(F)c(F)c1Nc1ccc(I)cc1F (stereo not given)	NO
